Tested on: BT-549 breast
procedure_details: NCI tumour cell line growth inhibition, 48 h
parameter: TGI (µM)
Lab book: enter the figure in µM, no units written.

chemical_smiles=O=C1Nc2ccc(Cl)cc2/C1=C/c1cccc(OCc2ccccc2)c1 observed=66.1
chemical_smiles=CC1=C(CCC=NNC(N)=O)C2=C(C)C3(CC3)[C@@](C)(O)C(=O)C2=C1 observed=0.212

API: the following record is the query input.
Input: Look up TGI of CN1CCN(Cc2ccc(C(=O)Nc3cccc(C#Cc4cccc5[nH]nc(N)c45)c3)cc2C(F)(F)F)CC1 and report it.
Output: 4.06

====

System: MDA-MB-468 breast
procedure_details: NCI tumour cell line growth inhibition, 48 h; in the data active = GI50 below about 0.43 µM; inactive = the rest
Choose one outcome from this list and give only that: active, inactive

Examples with answers:
molecule="CN1C[C@@H](c2ccc(Cl)cc2)[C@]2(NC(=S)N(c3ccc(F)c(Cl)c3)C2=O)[C@@]12C(=O)NC1C=CC(Cl)=C[C@H]12 (stereo partly specified)" target_under_test="MDA-MB-468 breast" class_label=inactive
molecule=CC(C)N(Cc1c(F)cccc1F)c1ccc(CO)c(Cl)c1 target_under_test="MDA-MB-468 breast" class_label=active
molecule=COc1ccc(C(=O)c2cc(OC)c(OC)c(OC)c2)cc1OC(=O)C(Cl)(Cl)Cl target_under_test="MDA-MB-468 breast" class_label=inactive
molecule=O=C1CCc2c(Oc3ccc4c(c3)[C@H]3[C@@H](O4)[C@@H]3c3nc4ccc(C(F)(F)F)cc4[nH]3)ccnc2N1 target_under_test="MDA-MB-468 breast" class_label=inactive
molecule=O=C1Nc2ccc(Cl)cc2/C1=C/c1cccc(OCc2ccccc2)c1 target_under_test="MDA-MB-468 breast" class_label=inactive

Now examine the next entry.
Input: # lookup: test call for COc1cc2c(cc1O)CC[C@@H]1[C@@H]2CC[C@]2(C)[C@@H](OCCCN(C)C)CC[C@@H]12
Output: active
